Values from patent US6773627B2

MEASUREMENT NOTES: Determination of hydrotrope utility (polarized light microscopy and rheology of compound/water/monoolein compositions)
Assay type: physicochemical
CONDITION: system with monoolein and water
READOUT: Suitability as hydrotrope

COMPOUND | RESULT
OCCCCO | effective as hydrotropes
CCN(CC)CCOC(=O)c1ccc(N)cc1.Cl [procaine hydrogen chloride, reference compound] | effective as hydrotropes
